- ASSAY_TARGET: human PDE3 (Homo sapiens, UniProt Q14432)
- Construct: Isolated human platelets are pre-incubated at 25° C; from tissue; host or cells: human platelets
- Sequence (Q14432 whole entry): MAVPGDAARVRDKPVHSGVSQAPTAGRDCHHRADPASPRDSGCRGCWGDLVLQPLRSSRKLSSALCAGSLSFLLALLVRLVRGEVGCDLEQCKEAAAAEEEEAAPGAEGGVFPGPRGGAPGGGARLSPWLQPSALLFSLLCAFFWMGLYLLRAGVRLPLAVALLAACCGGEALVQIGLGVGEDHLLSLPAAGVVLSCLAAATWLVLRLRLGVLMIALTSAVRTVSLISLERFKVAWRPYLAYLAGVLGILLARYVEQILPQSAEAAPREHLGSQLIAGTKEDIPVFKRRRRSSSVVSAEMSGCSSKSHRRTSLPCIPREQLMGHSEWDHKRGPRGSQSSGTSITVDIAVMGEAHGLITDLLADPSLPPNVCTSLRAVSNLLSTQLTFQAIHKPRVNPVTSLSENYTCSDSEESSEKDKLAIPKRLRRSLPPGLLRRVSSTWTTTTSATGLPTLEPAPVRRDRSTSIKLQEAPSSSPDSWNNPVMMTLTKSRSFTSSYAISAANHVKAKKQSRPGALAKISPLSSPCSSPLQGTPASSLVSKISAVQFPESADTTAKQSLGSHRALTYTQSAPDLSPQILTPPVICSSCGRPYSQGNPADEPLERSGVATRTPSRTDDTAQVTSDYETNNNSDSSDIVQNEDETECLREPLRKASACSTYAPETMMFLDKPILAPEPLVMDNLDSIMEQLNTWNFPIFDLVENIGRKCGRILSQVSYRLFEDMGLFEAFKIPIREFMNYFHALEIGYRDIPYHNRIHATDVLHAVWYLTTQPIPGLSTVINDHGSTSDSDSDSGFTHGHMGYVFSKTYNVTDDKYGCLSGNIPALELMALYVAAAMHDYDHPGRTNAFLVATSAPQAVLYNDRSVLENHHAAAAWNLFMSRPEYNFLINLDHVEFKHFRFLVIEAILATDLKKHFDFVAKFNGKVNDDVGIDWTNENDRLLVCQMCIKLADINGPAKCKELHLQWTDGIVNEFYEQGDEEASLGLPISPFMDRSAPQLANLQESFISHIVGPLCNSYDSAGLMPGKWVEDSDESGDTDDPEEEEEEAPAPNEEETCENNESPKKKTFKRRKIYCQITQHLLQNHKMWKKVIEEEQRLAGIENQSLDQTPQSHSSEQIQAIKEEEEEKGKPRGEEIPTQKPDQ
- METHOD_SUMMARY: Human PDE3 assay (platelets)
- Assay type: biochemical
- ASSAY_SETUP: 10 μM concentration
PROPERTY_NAME: inhibition of human PDE3 activity

Consider the following illustrative entries.
INSERT INTO results (structure_smiles_string, property_name, result) VALUES
  ('CC(=O)C(c1c(O)c2cccc(C(C)C)c2oc1=O)c1c(O)c2cccc(C(C)C)c2oc1=O', 'inhibition of human PDE3 activity', 'significantly inhibited'),
  ('CC(C)c1cccc2c(O)c(C(C(=O)OCCO)c3c(O)c4cccc(C(C)C)c4oc3=O)c(=O)oc12', 'inhibition of human PDE3 activity', 'significantly inhibited'),
  ('CC(C)c1cccc2c(O)c(C(CO)c3c(O)c4cccc(C(C)C)c4oc3=O)c(=O)oc12', 'inhibition of human PDE3 activity', 'significantly inhibited'),
  ('O=c1oc2ccccc2c(O)c1C(c1cnc2ccccc2c1)c1c(O)c2ccccc2oc1=O', 'inhibition of human PDE3 activity', 'significantly inhibited');

# ---- query compound ----
*Q* What value of measured inhibition of human PDE3 activity is listed for CCc1cccc2c(O)c(C(C(C)=O)c3c(O)c4cccc(CC)c4oc3=O)c(=O)oc12 ?
*A* significantly inhibited
